Biological target: Glutamate NMDA receptor
Experiment: The compound was tested for its affinity for the glutamic acid binding site of the NMDA receptor by using [3H]CGP-39653 as radioligand
Format: protein-complex assay
Exercise: for every item that follows, state its recorded IC50.

Report IC50 for O=C(O)CC1CCc2cc(Br)cc3[nH]c(=O)c(=O)n1c23 (configuration not stated) tested on Glutamate NMDA receptor.
> 30 µM

Missing value: IC50, Glutamate NMDA receptor, entry O=C(CC1CCc2cc(Br)cc3[nH]c(=O)c(=O)n1c23)Nc1ccccc1 (configuration not stated) . Fill in?
> 25 µM

###

Target: Glutamate NMDA receptor
Assay: Affinity for the glycine binding site of NMDA receptor by inhibition of [3H]5,7-dichlorokynurenic acid ([3H]DCKA) binding to rat brain synaptic membrane
pKi: −log10 of the molar value.
Classification field: yes (1) = pKi at or over 7; no (0) = pKi under 7.

State whether the measured pKi reaches 7, counting equality as reaching it, for O=C(O)C1CCc2cc(Br)cc3[nH]c(=O)c(=O)n1c23 (stereo not drawn)
yes (1)

hey, is pKi for this one >= 7? O=C(CC1Cc2cc(Br)cc3[nH]c(=O)c(=O)n1c23)Nc1ccccc1 (stereo not drawn)
no (0)

Textbook exercise: given the entry O=C(NCC1Cc2cc(Br)cc3[nH]c(=O)c(=O)n1c23)c1ccccc1 (stereo not drawn) , state whether its pKi is greater than or equal to 7.
no (0)

Could you verify whether the entry O=C(NCC1Cc2cc(Br)cc3[nH]c(=O)c(=O)n1c23)Nc1ccccc1 (stereo not drawn) shows pKi of no less than 7?
no (0)

Is it the case that O=C(O)C[C@@H]1CCc2cc(Br)cc3[nH]c(=O)c(=O)n1c23 has pKi reaching or exceeding 7?
yes (1)

Exam item: decide whether the reported pKi for O=C(O)CC1CCc2cc(Br)cc3[nH]c(=O)c(=O)n1c23 (stereo not drawn) is at least 7.
yes (1)

Determine whether measured pKi meets or exceeds 7 for O=C(O)c1cc(O)c2c(Cl)cc(Cl)cc2n1
yes (1)

Answer whether pKi of O=C(O)C[C@H]1CCc2cc(Br)cc3[nH]c(=O)c(=O)n1c23 is greater than or equal to 7.
yes (1)

Could you tell me if the measured pKi of O=C(Nc1ccccc1)N[C@H]1C[C@H](C(=O)O)Nc2cc(Cl)cc(Cl)c21 reaches 7 or more?
yes (1)

Is the recorded value of pKi equal to or greater than 7 for this compound? O=c1[nH]c2cc(Br)cc3c2n(c1=O)CC3
no (0)

Hello, I need to know if O=C(O)CC1Cc2cc(Br)cc3[nH]c(=O)c(=O)n1c23 (stereo not drawn) has measured pKi not below 7. Thanks!
yes (1)

Item O=C(CC1CCc2cc(Br)cc3[nH]c(=O)c(=O)n1c23)Nc1ccccc1 (stereo not drawn) with pKi of 7 or above?
yes (1)

# bool: pKi of O=C(C[C@@H]1CCc2cc(Br)cc3[nH]c(=O)c(=O)n1c23)Nc1ccccc1 >= 7
yes (1)

Please tell me: is the compound O=C(Nc1ccccc1)C1Cc2cc(Br)cc3[nH]c(=O)c(=O)n1c23 (stereo not drawn) at or over 7 in terms of pKi?
no (0)

Entry O=C(CCC1CCc2cc(Br)cc3[nH]c(=O)c(=O)n1c23)Nc1ccccc1 (stereo not drawn) : is its pKi no less than 7?
no (0)

Entry O=C(NCC1CCc2cc(Br)cc3[nH]c(=O)c(=O)n1c23)c1ccccc1 (stereo not drawn) : is its pKi no less than 7?
no (0)

Hello, I need to know if O=C(NCC1CCc2cc(Br)cc3[nH]c(=O)c(=O)n1c23)Nc1ccccc1 (stereo not drawn) has measured pKi not below 7. Thanks!
no (0)

Test whether the compound O=C(O)CCC1CCc2cc(Br)cc3[nH]c(=O)c(=O)n1c23 (stereo not drawn) records pKi of 7 or higher.
yes (1)

Reported pKi at or above 7? O=c1[nH]c2cc(Br)cc3c2n(c1=O)CCC3
no (0)

Could you tell me if the measured pKi of O=C(Nc1ccccc1)C1CCc2cc(Br)cc3[nH]c(=O)c(=O)n1c23 (stereo not drawn) reaches 7 or more?
no (0)

All values here come from ChEMBL document CHEMBL1127409.
